- Test system: 388556-164-R-J1-PDC complex spheroid viability
- Experiment: Anticancer human tumor 388556-164-R-J1-PDC patient-derived colon adenocarcinoma cell line growth inhibition [RAS]
- Condition context: second compound 0.3 µM; first compound 3.16 µM; stronger effect = lower value
- Text: RAS pathway inhibitors in Combinations in Complex Spheroids A high-throughput screen of multi-cell type tumor spheroids was designed to identify active combinations of RAS pathway inhibitors and targeted small molecules. Complex spheroids include a stromal component modeled by human endothelial cells (HUVEC) and fibroblasts modeled by human mesenchymal stem cells (MSCs). […] Compounds. […] If the clinical Cmax for an agent had not been determined, the highest concentration tested was 10 microM. […]
Measurement label: viability, T/C (%)
Unit % implied. Number only.

Using the record for CC(C)NCC(C(=O)N1CCN(c2ncnc3c2C(C)CC3O)CC1)c1ccc(Cl)cc1 (stereo not drawn) + CCn1c(-c2cccnc2C(C)OC)c2c3cc(ccc31)N1CCOC(CC(NC(=O)C(C(C)C)N(C)C(=O)C3(F)CCN(C(=O)C#CC(C)(C)N(C)C)CC3)C(=O)N3CCCC(N3)C(=O)OCC(C)(C)C2)C1 , report its viability, T/C.
95.5

Using the record for Cc1nc(N2CCC3(CC2)COC(C)C3N)c(CO)nc1Sc1ccnc(N)c1Cl (stereo not drawn) + CCn1c(-c2cc(N3CCN(C)CC3)cnc2C(C)OC)c2c3cc(ccc31)-c1csc(n1)CC(NC(=O)C1CC1C)C(=O)N1CCCC(N1)C(=O)OCC(C)(C)C2 , report its viability, T/C.
24

Using the record for CCC(CC)c1cc(NC2CCC(N)C2)n2nccc2n1 (stereo not drawn) + CCn1c(-c2cc(N3CCN(C)CC3)cnc2C(C)OC)c2c3cc(ccc31)-c1csc(n1)CC(NC(=O)C1CC1C)C(=O)N1CCCC(N1)C(=O)OCC(C)(C)C2 , report its viability, T/C.
5.58

====

Documented viability, T/C across a set of molecules
- System: 388556-164-R-J1-PDC complex spheroid viability
- Experiment: Anticancer human tumor 388556-164-R-J1-PDC cell line growth inhibition [RAS];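 further: spheroids exposed to compound for 7 days before readout; 100% = DMSO vehicle control luminescence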
- Condition context: second compound 0.00949 µM; first compound 0.316 µM; stronger effect = lower value
Unit % implied. Number only.

Observe how each entry below is paired with its result.
{"Molecule": "C=CC(=O)Nc1cc(Nc2nccc(-c3cn(C)c4ccccc34)n2)c(OC)cc1N(C)CCN(C)C + CCn1c(-c2cc(N3CCN(C)CC3)cnc2C(C)OC)c2c3cc(ccc31)-c1csc(n1)CC(NC(=O)C1CC1C)C(=O)N1CCCC(N1)C(=O)OCC(C)(C)C2", "Value reported": 60.5}
{"Molecule": "NC1c2ccccc2OC12CCN(c1cnc3c(N4CCCc5ncccc54)n[nH]c3n1)CC2 (configuration not stated) + CCn1c(-c2cccnc2C(C)OC)c2c3cc(ccc31)N1CCOC(CC(NC(=O)C(C(C)C)N(C)C(=O)C3(F)CCN(C(=O)C#CC(C)(C)N(C)C)CC3)C(=O)N3CCCC(N3)C(=O)OCC(C)(C)C2)C1", "Value reported": 47.1}
{"Molecule": "CCC(CC)c1cc(NC2CCC(N)C2)n2nccc2n1 (configuration not stated) + CCn1c(-c2cccnc2C(C)OC)c2c3cc(ccc31)N1CCOC(CC(NC(=O)C(C(C)C)N(C)C(=O)C3(F)CCN(C(=O)C#CC(C)(C)N(C)C)CC3)C(=O)N3CCCC(N3)C(=O)OCC(C)(C)C2)C1", "Value reported": 102}

Using the record for C[C@@H](NC(=O)c1ncnc(N)c1Cl)c1ncc(C(=O)Nc2cc(C(F)(F)F)c(Cl)cn2)s1 + CCn1c(-c2cccnc2C(C)OC)c2c3cc(ccc31)N1CCOC(CC(NC(=O)C(C(C)C)N(C)C(=O)C3(F)CCN(C(=O)C#CC(C)(C)N(C)C)CC3)C(=O)N3CCCC(N3)C(=O)OCC(C)(C)C2)C1 , report its viability, T/C.
113

Using the record for O=C(c1ccc(F)c(F)c1Nc1ccc(I)cc1F)N1CC(O)([C@@H]2CCCCN2)C1 + CCn1c(-c2cc(N3CCN(C)CC3)cnc2C(C)OC)c2c3cc(ccc31)-c1csc(n1)CC(NC(=O)C1CC1C)C(=O)N1CCCC(N1)C(=O)OCC(C)(C)C2 , report its viability, T/C.
24.1

Using the record for CCN1CCN(Cc2ccc(Nc3ncc(F)c(-c4cc(F)c5nc(C)n(C(C)C)c5c4)n3)nc2)CC1 + CCn1c(-c2cc(N3CCN(C)CC3)cnc2C(C)OC)c2c3cc(ccc31)-c1csc(n1)CC(NC(=O)C1CC1C)C(=O)N1CCCC(N1)C(=O)OCC(C)(C)C2 , report its viability, T/C.
62.7

Using the record for CC(Nc1ccc2c(c1)OCCn1cc(N3C(=O)OCC3C(F)F)nc1-2)C(N)=O (configuration not stated) + CCn1c(-c2cccnc2C(C)OC)c2c3cc(ccc31)N1CCOC(CC(NC(=O)C(C(C)C)N(C)C(=O)C3(F)CCN(C(=O)C#CC(C)(C)N(C)C)CC3)C(=O)N3CCCC(N3)C(=O)OCC(C)(C)C2)C1 , report its viability, T/C.
80.7

The reported numbers originate from PubChem BioAssay AID2060907.
